Below, each entry is listed with its recorded MIC.
tested on: S. aureus 77; assay: Minimum Inhibitory Concentration (MIC), agar dilution, standard strains; type: cell-based; settings: Staphylococcus aureus, 77; Mueller-Hinton agar, double dilution, 37° C. for 20 hours; read-out: Minimum Inhibitory Concentration (MIC), S. aureus 77
# value in mg/L; strip the unit string

Illustrative cases are given below, each with its answer.
NCCSc1nccc(S/C=C/C2=C(C(=O)O)N3C(=O)[C@@H](NC(=O)C(=NO)c4nc(N)sc4Cl)[C@H]3SC2)n1
1
Nc1cc(S/C=C/C2=C(C(=O)O)N3C(=O)[C@@H](NC(=O)C(=NO)c4nc(N)sc4Cl)[C@H]3SC2)nc(O)n1
0.25
Nc1cc(S/C=C/C2=C(C(=O)O)N3C(=O)[C@@H](NC(=O)C(=NOC4CCCC4)c4nc(N)sc4Cl)[C@H]3SC2)nc(N)n1
2
Nc1nc(C(=NO)C(=O)N[C@@H]2C(=O)N3C(C(=O)O)=C(/C=C/Sc4nc(N)c5cn[nH]c5n4)CS[C@H]23)c(Cl)s1
0.5
Nc1cc(S/C=C/C2=C(C(=O)O)N3C(=O)[C@@H](NC(=O)C(=NO)c4nc(N)sc4Cl)[C@H]3SC2)nc(N)n1
1

Shift focus to the following entry.
Fill in reported MIC for this entry: Nc1nc(O)cc(S/C=C/C2=C(C(=O)O)N3C(=O)[C@@H](NC(=O)C(=NO)c4nc(N)sc4Cl)[C@H]3SC2)n1
0.5

###

tested on: E. faecalis 2168; experiment: Minimum Inhibitory Concentration (MIC), agar dilution, standard strains; assay type: cell-based; details: Enterococcus faecalis, 2168; Mueller-Hinton agar, double dilution, 37° C. for 20 hours; read-out: Minimum Inhibitory Concentration (MIC), E. faecalis 2168
// values below are reported MIC
Provide only the numeric value, understood in µg/mL.

As a guide, the following entries are already answered.
Nc1nc(C(=NO)C(=O)N[C@@H]2C(=O)N3C(C(=O)O)=C(/C=C/Sc4nc(N)c5cn[nH]c5n4)CS[C@H]23)c(Cl)s1
0.5
Nc1cc(S/C=C/C2=C(C(=O)O)N3C(=O)[C@@H](NC(=O)C(=NO)c4nc(N)sc4Cl)[C@H]3SC2)nc(N)n1
1
Nc1cc(S/C=C/C2=C(C(=O)O)N3C(=O)[C@@H](NC(=O)C(=NOC4CCCC4)c4nc(N)sc4Cl)[C@H]3SC2)nc(N)n1
4
Nc1nc(O)cc(S/C=C/C2=C(C(=O)O)N3C(=O)[C@@H](NC(=O)C(=NO)c4nc(N)sc4Cl)[C@H]3SC2)n1
0.5
NCCSc1nccc(S/C=C/C2=C(C(=O)O)N3C(=O)[C@@H](NC(=O)C(=NO)c4nc(N)sc4Cl)[C@H]3SC2)n1
1

Now let's try a different one.
Quick one: give measured MIC for Nc1cc(S/C=C/C2=C(C(=O)O)N3C(=O)[C@@H](NC(=O)C(=NO)c4nc(N)sc4Cl)[C@H]3SC2)nc(O)n1
0.5
